The compounds below have reported MIC for Eb. cloaceae ATCC 13047.
MEASUREMENT LABEL: MIC (µg/mL)

1. Cn1nnnc1SCC1=C(C(=O)O)N2C(=O)[C@@H](NC(=O)C(NC(=O)Nc3cnc(Nc4ccc(S(N)(=O)=O)cc4)nc3O)c3cccs3)[C@H]2SC1 (stereo partly drawn); 0.5
2. CC(=O)Nc1nnc(SCC2=C(C(=O)O)N3C(=O)[C@@H](NC(=O)[C@H](NC(=O)Nc4cnc(NC5CCC(O)CC5)nc4O)c4ccc(O)cc4)[C@H]3SC2)s1 (stereo partly drawn); 8
3. Cn1nnnc1SCC1=C(C(=O)O)N2C(=O)[C@@H](NC(=O)[C@H](NC(=O)Nc3cnc(C4CC4)nc3O)c3ccc(O)cc3)[C@H]2SC1; 2
4. Cn1nnnc1SCC1=C(C(=O)O)N2C(=O)[C@@H](NC(=O)C(NC(=O)Nc3cnc(NC4CCC(O)CC4)nc3O)c3cccs3)[C@H]2SC1 (stereo partly drawn); 4
5. Cn1nnnc1SCC1=C(C(=O)O)N2C(=O)[C@@H](NC(=O)[C@H](NC(=O)Nc3cnc(NCCCO)nc3O)c3ccc(O)cc3)[C@H]2SC1; 0.5
6. CNc1nnc(SCC2=C(C(=O)O)N3C(=O)[C@@H](NC(=O)[C@H](NC(=O)Nc4cnc(Nc5ccc(S(=O)(=O)NC)cc5)nc4O)c4ccc(O)cc4)[C@H]3SC2)s1; 1
7. Cn1nnnc1SCC1=C(C(=O)O)N2C(=O)[C@@H](NC(=O)[C@H](NC(=O)Nc3cnc(Nc4ccc(S(N)(=O)=O)cc4)nc3O)c3ccc(O)cc3)[C@H]2SC1; 0.5
8. CO/N=C(\C(=O)N[C@@H]1C(=O)N2C(C(=O)O)=C(COC(N)=O)CS[C@H]12)c1ccco1 [Cefuroxim, reference compound]; 32

====

Test system: Klebsiella pneumoniae 272
# maps each entry to its MIC
MEASUREMENT LABEL: MIC

1. Cc1nnc(SCC2=C(C(=O)O)N3C(=O)[C@@H](NC(=O)Cn4cnnn4)[C@H]3SC2)s1 [Cephazolin, reference compound]; 2 µg/mL
2. CNS(=O)(=O)c1ccc(Nc2ncc(NC(=O)N[C@@H](C(=O)N[C@@H]3C(=O)N4C(C(=O)O)=C(CSc5nnc(C)s5)CS[C@H]34)c3ccc(O)cc3)c(O)n2)cc1; 0.5 µg/mL
3. Cn1nnnc1SCC1=C(C(=O)O)N2C(=O)[C@@H](NC(=O)[C@H](NC(=O)Nc3cnc(NCCCO)nc3O)c3ccc(O)cc3)[C@H]2SC1; 1 µg/mL

====

Tested on: Eb. cloaceae ATCC 13047
Assay: Serial dilution test in the microtiter system, MIC against Eb. cloaceae ATCC 13047
Format: cell-based
Conditions: minimum inhibitory concentration; 37° C., 18 to 20 hours
# maps each entry to its MIC
MEASUREMENT LABEL: MIC

1. Cc1nnc(SCC2=C(C(=O)O)N3C(=O)[C@@H](NC(=O)[C@H](NC(=O)Nc4cnc(NC5CCC(O)CC5)nc4O)c4ccc(O)cc4)[C@H]3SC2)s1 (stereo partly drawn); 2 µg/mL
2. CCCNc1ncc(NC(=O)N[C@@H](C(=O)N[C@@H]2C(=O)N3C(C(=O)O)=C(CSc4nnnn4C)CS[C@H]23)c2ccc(O)cc2)c(O)n1; 1 µg/mL
3. CNS(=O)(=O)c1ccc(Nc2ncc(NC(=O)N[C@@H](C(=O)N[C@@H]3C(=O)N4C(C(=O)O)=C(CSc5nnc(C)s5)CS[C@H]34)c3ccc(O)cc3)c(O)n2)cc1; 1 µg/mL
4. CNS(=O)(=O)c1ccc(Nc2ncc(NC(=O)N[C@@H](C(=O)N[C@@H]3C(=O)N4C(C(=O)O)=C(CSc5nnnn5C)CS[C@H]34)c3ccc(O)cc3)c(O)n2)cc1; 0.5 µg/mL
5. Cn1nnnc1SCC1=C(C(=O)O)N2C(=O)[C@@H](NC(=O)[C@H](NC(=O)Nc3cnc(NC4CCC(O)CC4)nc3O)c3ccc(O)cc3)[C@H]2SC1 (stereo partly drawn); 0.5 µg/mL
6. CNS(=O)(=O)c1ccc(Nc2ncc(NC(=O)N[C@@H](C(=O)N[C@@H]3C(=O)N4C(C(=O)O)=C(COC(C)=O)CS[C@H]34)c3ccc(O)cc3)c(O)n2)cc1; 2 µg/mL
